Assay: Blood pharmacokinetics after single oral dose in C. rodentium colitis mice
Assay type: in vivo, mouse
Conditions: male, C57BL/6, mouse, whole blood; blood; single oral dose 30 mg/kg HCQ equivalent; colitis mice; pCQ = total HCQ
VALUE TYPE: CL/F
Your answer should be a number followed by the unit of measure.

Req: CL/F lookup needed for CCN(CCO)CCCC(C)Nc1ccnc2cc(Cl)ccc12 (stereo not shown) [HCQ, Hydroxychloroquine] , thanks.
Resp: 18.3 mL/min/kg

* * *

Experiment: Colon pharmacokinetics and distribution after single oral dose in colitis mice
Format: in vivo
Settings: male, C57BL/6, mouse, single oral dose 30 mg/kg CQ equivalent, pCQ = total HCQ
VALUE TYPE: Tmax (h)
Write the number in h without appending the unit.

Req: Which Tmax is listed for CCN(CCO)CCCC(C)Nc1ccnc2cc(Cl)ccc12 (stereo not shown) [HCQ, Hydroxychloroquine] ?
Resp: 8

* * *

Experiment: Colon pharmacokinetics and distribution after single oral dose in colitis mice
Assay type: in vivo
Conditions: male, C57BL/6, mouse, single oral dose 30 mg/kg CQ equivalent, pCQ = total HCQ
VALUE TYPE: AUC(0-t) (µg·h/mL)
Field: numeric (µg·h/mL). Do not append units.

Req: AUC(0-t) lookup needed for CCN(CCO)CCCC(C)Nc1ccnc2cc(Cl)ccc12 (stereo not shown) [HCQ, Hydroxychloroquine] , thanks.
Resp: 166

* * *

Assay: Blood pharmacokinetics after single oral dose in C. rodentium colitis mice
Assay type: in vivo, mouse
Details: male, C57BL/6, mouse, whole blood; blood; single oral dose 30 mg/kg HCQ equivalent; colitis mice; pCQ = total HCQ
VALUE TYPE: half-life (h)
Enter your answer as a number in h; do not include the unit.

Req: Need half-life, item CCN(CCO)CCCC(C)Nc1ccnc2cc(Cl)ccc12 (stereo not shown) [HCQ, Hydroxychloroquine]
Resp: 5.6

* * *

Assay: Blood pharmacokinetics after single oral dose in C. rodentium colitis mice
Assay type: in vivo, mouse
Details: male, C57BL/6, mouse, whole blood, po, 30 mg/kg, blood; single oral dose 30 mg/kg HCQ equivalent; colitis mice; pCQ = total (polymer-bound + hydrolyzed) HCQ; read-out: Cmax
Experimental: Male C57BL/6 mice (6 weeks old, 18-20 g) were obtained from Charles River Laboratories and used for all in vivo studies. […] Bacterial optical density was measured at 600 nm. […] The pharmacokinetics and biodistribution of single dose pCQ was evaluated in a mouse model of IBD. […] The pharmacokinetic parameters of HCQ and pCQ in blood and tissues were calculated using non-compartmental analysis with Phoenix WinNonlin 6.3 (Pharsight Corporation). […]
VALUE TYPE: Cmax
Reply with a number, then the unit it belongs to.

Req: Sample CCN(CCO)CCCC(C)Nc1ccnc2cc(Cl)ccc12 (stereo not shown) [HCQ, Hydroxychloroquine] — what was its Cmax?
Resp: 2340 ng/mL

* * *

Test: Liver pharmacokinetics and distribution after single oral dose in colitis mice
Type: in vivo
Settings: male, C57BL/6, mouse, single oral dose 30 mg/kg CQ equivalent, pCQ = total HCQ
VALUE TYPE: AUC(0-inf)
Remember to put the unit after the number in your answer.

Req: What does the data say about its AUC(0-inf)? Entry: CCN(CCO)CCCC(C)Nc1ccnc2cc(Cl)ccc12 (stereo not shown) [HCQ, Hydroxychloroquine]
Resp: 176 µg·h/mL

* * *

Assay: Liver pharmacokinetics and distribution after single oral dose in colitis mice
Type: in vivo
Details: male, C57BL/6, mouse, single oral dose 30 mg/kg CQ equivalent, pCQ = total HCQ
VALUE TYPE: Cmax
Show the value, then the unit it is measured in.

Req: Fill in the blank: the reported Cmax of CCN(CCO)CCCC(C)Nc1ccnc2cc(Cl)ccc12 (stereo not shown) [HCQ, Hydroxychloroquine] is ____.
Resp: 12800 ng/mL

* * *

Experiment: Liver pharmacokinetics and distribution after single oral dose in colitis mice
Format: in vivo
Conditions: male, C57BL/6, mouse, single oral dose 30 mg/kg CQ equivalent, pCQ = total HCQ
VALUE TYPE: AUC(0-t) (µg·h/mL)
Express it in µg·h/mL; write the number only.

Req: Given the compound CCN(CCO)CCCC(C)Nc1ccnc2cc(Cl)ccc12 (stereo not shown) [HCQ, Hydroxychloroquine] , what is its reported AUC(0-t)?
Resp: 168
